target-of-assay: human secretin receptor (hSCTR) (human, UniProt P47872 23-440)
Sequence (P47872 23-440): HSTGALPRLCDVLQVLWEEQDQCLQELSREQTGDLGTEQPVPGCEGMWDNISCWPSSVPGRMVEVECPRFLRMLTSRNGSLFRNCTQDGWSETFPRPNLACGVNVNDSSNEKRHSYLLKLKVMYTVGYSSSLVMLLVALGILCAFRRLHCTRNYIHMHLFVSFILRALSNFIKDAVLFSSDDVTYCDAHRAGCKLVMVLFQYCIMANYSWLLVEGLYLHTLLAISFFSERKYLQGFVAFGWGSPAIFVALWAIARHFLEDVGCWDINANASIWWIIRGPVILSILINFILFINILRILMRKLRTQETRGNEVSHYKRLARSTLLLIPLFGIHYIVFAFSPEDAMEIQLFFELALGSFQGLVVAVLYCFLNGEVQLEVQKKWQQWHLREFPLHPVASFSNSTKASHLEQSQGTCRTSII
assay-name: cell-based or functional assay
Numbered stars: 1 amine (or outer) side, 2 acyl side, 3 side chain; on linkers, the order of the positions; unused ones are H or OH. Square brackets hold non-standard residues; d marks the D form. Side chains are listed from the residue outwards. Ends that are not written are not given here. * marks the point of attachment. C20 diacid = O=C(O)CCCCCCCCCCCCCCCCCCC(=O)*; γGlu = O=C(O)[C@H](CCC(=O)[*:2])N[*:1]; AEEA = NCCOCCOCC(=O)O; Aib = CC(C)(N)C(=O)O
observed-property: pEC50 hSCTR

Before answering, review these 2 worked examples.
Query: pEC50 hSCTR; subject: H[Aib]EGTFTSDVSTLK([AEEA-AEEA-γGlu-C20 diacid])E[Aib]AAQQRFLEHLV-NH2 [SEQ ID NO: 88]
Reply: 6.8 -log M

Query: pEC50 hSCTR; subject: H[Aib]EGTFTSDVSVLK([AEEA-AEEA-γGlu-C20 diacid])EFAAAQRFLEHLV-NH2 [SEQ ID NO: 29]
Reply: 6.1 -log M

New cases:
Query: pEC50 hSCTR; subject: H[Aib]EGTFTSDVSFLK([AEEA-AEEA-γGlu-C20 diacid])ETAAAQRFLEHLV-NH2 [SEQ ID NO: 44]
Reply: 5.4 -log M

Query: pEC50 hSCTR; subject: H[Aib]EGTFTSDVSELK([AEEA-AEEA-γGlu-C20 diacid])E[Aib]AA[Aib]QRFLEHLV-NH2 [SEQ ID NO: 7]
Reply: 6 -log M

Query: pEC50 hSCTR; subject: H[Aib]EGTFTSDVSELK([AEEA-AEEA-γGlu-C20 diacid])ETAA[Aib]QRFLEHLV-NH2 [SEQ ID NO: 45]
Reply: 5.7 -log M

Query: pEC50 hSCTR; subject: H[Aib]EGTFTSDVSRLK([AEEA-AEEA-γGlu-C20 diacid])EEAA[Aib]QRFLEHLV-NH2 (also: K14 lipid also given as C18DA[γE][OEG][OEG]-) [SEQ ID NO: 1]
Reply: 6.8 -log M

Query: pEC50 hSCTR; subject: H[Aib]EGTFTSDVSYLK([AEEA-AEEA-γGlu-C20 diacid])ETAAEQRFLEHLV-NH2 [SEQ ID NO: 69]
Reply: 4.8 -log M

Query: pEC50 hSCTR; subject: H[Aib]EGTFTSDVSELK([AEEA-AEEA-γGlu-C20 diacid])EEA[Aib]LQRFLEHLV-NH2 [SEQ ID NO: 168]
Reply: 7.3 -log M

Query: pEC50 hSCTR; subject: H[Aib]EGTFTSDVSYLK([AEEA-AEEA-γGlu-C20 diacid])EEAASQRFLEHLV-NH2 [SEQ ID NO: 75]
Reply: 5.5 -log M

Query: pEC50 hSCTR; subject: H[Aib]EGTFTSDVSFLK([AEEA-AEEA-γGlu-C20 diacid])EEAASQRFLEHLV-NH2 [SEQ ID NO: 38]
Reply: 6 -log M

Source listed as patent US20260201008A1.
